system: Fer (mouse); test: phosphorylation enrichment, bacterial display (enrichment ratio); higher = better substrate or ligand; peptides without Tyr show the background;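 also: 11-residue human phosphosite peptides and single-mutation variants displayed on the E. coli surface, counted by deep sequencing, each peptide's frequency after selection divided by its frequency in the unselected input library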;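 also: frequency after pTyr selection over input frequency; kinase dosed for 20-30% of maximal phosphorylation in three min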
Each record's class is read off its phosphorylation enrichment using these ranges: c1 (below 0.5), c2 (0.5 to below 0.6), c3 (0.6 or more)

Input line: Form field 'band' for ARSHIYTFASC [MEFV_Y741]
Output line: c2

Input line: Form field 'band' for ALETLYKKAVK [CC2D2A_Y381_E376A]
Output line: c1

Input line: Form field 'band' for ADGLEYPRTGL [MMUT_Y287_S288P]
Output line: c1

Input line: Form field 'band' for ENELTYFCFKK [CD59_Y86_C89Y_YF]
Output line: c2

Input line: Form field 'band' for MVIPNYSSWTE [UROC1_Y185_R188W]
Output line: c3

Input line: Form field 'band' for CRAVKYLQMVR [AVPR2_Y117_G122R]
Output line: c1

Input line: Form field 'band' for LRGEDCGFSVD [PRKCI_Y430_Y430C]
Output line: c3

Input line: Form field 'band' for LIDSSYLTPTA [GREB1L_Y1063_R1066P]
Output line: c1

Input line: Form field 'band' for EEEYEYMNRRR [ERBB3_Y1199_D1194E]
Output line: c1

Input line: Form field 'band' for DSRRDYVSQFE [APOA1_Y53_G50R]
Output line: c1

Input line: Form field 'band' for DFPIGYPSYLA [TBCK_Y153]
Output line: c2

Input line: Form field 'band' for FAKSVYWDNTL [NUP107_Y296_E298D_YF]
Output line: c1

Input line: Form field 'band' for PVQAAYQNVVA [HBB_Y131_K133N]
Output line: c3

Input line: Form field 'band' for EADRKYEEVAH [TPM3_Y163_R168H]
Output line: c2

Input line: Form field 'band' for YGMQLYQNYMH [GRB14_Y347]
Output line: c3

Input line: Form field 'band' for GIPIQYPIISE [NOG_Y222_W217G]
Output line: c1

Input line: Form field 'band' for KKFPDYIQSAM [SGMS2_Y59_I62S_YF]
Output line: c1

Input line: Form field 'band' for QMVRMYASSYM [AVPR2_Y124_G122R]
Output line: c3

Input line: Form field 'band' for TRSYDYMEGGD [FGF7_Y58]
Output line: c1

Input line: Form field 'band' for AVLALYNSTRD [TGFB1_Y81]
Output line: c2

Input line: Form field 'band' for KRISCYEARFQ [PFKFB3_Y194_S197R_YF]
Output line: c1

Input line: Form field 'band' for LFNQDYPIHSV [GATM_Y227_YF]
Output line: c3

Input line: Form field 'band' for NIRKKYYRAIL [CHD7_Y1217_Q1214R]
Output line: c1

Input line: Form field 'band' for VECQVYAEDPF [PCCA_Y401_R399Q_YF]
Output line: c3

Input line: Form field 'band' for ESSKAYERDLS [TTC37_Y1074_A1077D]
Output line: c2
